Experiment Summary: recombinant barcode read abundance after kanamycin selection (control-corrected) (log10(CPM+1)); higher = more efficient recombination; sequences stand for … in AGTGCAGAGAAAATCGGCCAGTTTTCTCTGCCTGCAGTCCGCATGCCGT…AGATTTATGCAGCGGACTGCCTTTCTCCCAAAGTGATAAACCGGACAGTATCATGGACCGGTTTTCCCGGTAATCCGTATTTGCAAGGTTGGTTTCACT; site = the 11-nt target;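 further: IS621 recombinase and bridge RNA in Escherichia coli cells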
Think of 0.2 as a floor: if recombinant barcode read abundance (log10) stands on it or above, it is Met; beneath it, Not met.

1) GGACCCTCTTGGGTTCTAACCTGTTGCCT (site CGACCCTCTAG); Met
2) CCATTGTCTTGGGTTCTAACCTGTTGCCG (site CCATTGTCTCG); Not met
3) CCTGGGCCTTGGGTTCTAACCTGTTGCCT (site CGTGGGCCTAG); Not met
4) CGGAGCCCTTGGGTTCTAACCTGTTGCAT (site CGGAGCCCTAT); Met
5) AGATTGACTTGGGTTCTAACCTGTTGCCA (site AGATTGACTTG); Not met
6) TCTAAGTCTTGGGTTCTAACCTGTTGCCG (site TCTAAGTCTTG); Met
7) GGACCATCTTGGGTTCTAACCTGTTGCCT (site GGACAATCTAG); Met
8) CGAGGGCCTTGGGTTCTAACCTGTTGCCT (site CGAGGGTCTAG); Met
9) ACTTGAGCTTGGGTTCTAACCTGTTGCAT (site TAGACTCCTTG); Met
10) CTGCGCCCTTGGGTTCTAACCTGTTGCCT (site CTGAGCCCTAG); Not met
11) GTTAGAACTTGGGTTCTAACCTGTTGCTT (site GTTAGAACTAA); Not met
12) GCAGGTCCTTGGGTTCTAACCTGTTGCCT (site GCAGGTCCTAG); Met
13) GTCTTACCTTGGGTTCTAACCTGTTGCCT (site GTCGTACCTAG); Not met
14) TGGGGTACTTGGGTTCTAACCTGTTGCCT (site TGGTGTACTAG); Not met
15) ATGTCTCCTTGGGTTCTAACCTGTTGCCT (site GTGTCTCCTAG); Not met
16) CTACGGTCTTGGGTTCTAACCTGTTGCAC (site CTACGCTCTGT); Met
17) TACCAGTCTTGGGTTCTAACCTGTTGCTT (site TACCCGTCTAA); Not met
18) GGCGTCACTTGGGTTCTAACCTGTTGCCT (site GGCGACCCTAG); Not met
19) TAGAAAGCTTGGGTTCTAACCTGTTGCCA (site TAGGAAGCTTC); Not met
20) AAGGTGTCTTGGGTTCTAACCTGTTGCCT (site AAAGTGTCTAG); Met

Measured values drawn from the supplement of paper PMC11208160 for this set.
